The reported measurements were obtained from paper PMC3280214.

- test.system: IDE (Homo sapiens, UniProt P14735)
- Construct: made in house; host or cells: E. coli BL21
- Sequence (P14735 whole entry): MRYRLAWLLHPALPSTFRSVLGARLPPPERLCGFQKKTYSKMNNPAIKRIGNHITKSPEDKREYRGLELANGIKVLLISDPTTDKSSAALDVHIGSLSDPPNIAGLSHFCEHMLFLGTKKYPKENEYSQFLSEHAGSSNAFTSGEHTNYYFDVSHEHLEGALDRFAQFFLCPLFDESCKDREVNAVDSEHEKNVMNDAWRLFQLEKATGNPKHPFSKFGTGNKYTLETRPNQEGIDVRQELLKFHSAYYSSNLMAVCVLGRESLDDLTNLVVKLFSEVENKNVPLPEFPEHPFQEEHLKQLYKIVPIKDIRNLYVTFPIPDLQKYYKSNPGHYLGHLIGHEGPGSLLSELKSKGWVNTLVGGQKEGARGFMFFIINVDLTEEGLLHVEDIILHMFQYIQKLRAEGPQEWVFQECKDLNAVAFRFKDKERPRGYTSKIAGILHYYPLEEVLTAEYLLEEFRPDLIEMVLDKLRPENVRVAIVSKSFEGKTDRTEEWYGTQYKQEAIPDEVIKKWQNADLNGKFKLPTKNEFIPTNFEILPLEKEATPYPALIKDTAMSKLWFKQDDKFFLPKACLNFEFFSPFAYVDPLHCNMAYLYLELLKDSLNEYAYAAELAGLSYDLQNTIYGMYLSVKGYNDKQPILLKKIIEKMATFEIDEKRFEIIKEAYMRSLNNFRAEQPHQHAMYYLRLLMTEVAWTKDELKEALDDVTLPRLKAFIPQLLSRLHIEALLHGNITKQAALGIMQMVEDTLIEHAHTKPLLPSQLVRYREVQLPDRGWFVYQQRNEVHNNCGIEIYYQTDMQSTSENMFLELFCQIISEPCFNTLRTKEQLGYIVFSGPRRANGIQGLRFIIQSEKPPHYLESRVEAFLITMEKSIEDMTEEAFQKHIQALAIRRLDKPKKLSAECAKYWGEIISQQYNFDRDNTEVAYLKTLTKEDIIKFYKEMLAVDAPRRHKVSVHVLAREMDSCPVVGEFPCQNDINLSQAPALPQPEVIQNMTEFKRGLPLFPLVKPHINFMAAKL
- assay.method.text: Degradation of fluorogenic substrate V by IDE
- Assay type: biochemical
- experimental.setup: dose response, Sigmoidal Hill 4 parameter fit
pEC50: −log10 of the molar value.
Quick reference for pEC50 among some compounds
assay.endpoint: pEC50

compound: Nc1c(C(=O)Nc2ccccc2F)c2ccccn2c1C(=O)c1ccc2c(c1)CCCC2 [Compound D4]
recorded.result: 5.15
--
compound: Cc1nn(-c2ccccc2)c2nc(-c3cccc([N+](=O)[O-])c3)n3c4ccccc4nc3c2c1=O [Compound D10]
recorded.result: 4.89
